# Test system: HSkMC (human skeletal muscle cells)
# Assay name: cytotoxicity call (relative viability < 0.9)
# Condition: 10 µM
In all, about 39,000 compounds went through this assay and about 1,500 (3.8%) were called active. Only a selection was taken, and actives are over-represented in it overall.
Endpoint label: cytotoxicity call

Reference set, count: 5
Entry under test: C[C@H](CO)N1C[C@H](C)[C@@H](CN(C)Cc2ccc(Cl)c(Cl)c2)Oc2ccc(NS(=O)(=O)c3ccc(Cl)cc3)cc2C1=O . Its cytotoxicity call was active

Entry under test: C[C@H]1CN([C@@H](C)CO)C(=O)c2cc(NS(=O)(=O)c3ccc(Cl)cc3)ccc2O[C@H]1CN(C)Cc1ccc(Cl)c(Cl)c1 . Its cytotoxicity call was active

Entry under test: O=C(O)CCCCN(CCc1ccccc1OCc1ccc(CCc2ccccc2)cc1)Cc1ccc(C(=O)O)cc1 . Its cytotoxicity call was inactive

Entry under test: C[C@H](CO)N1C[C@H](C)[C@@H](CN(C)Cc2ccc(Oc3ccccc3)cc2)Oc2c(NC(=O)C3CC3)cccc2C1=O . Its cytotoxicity call was inactive

Entry under test: C[C@H]1CN([C@@H](C)CO)C(=O)c2cc(Br)cnc2O[C@H]1CN(C)S(=O)(=O)c1cccs1 . Its cytotoxicity call was inactive

Continuing:
Entry under test: C[C@@H]1CN([C@H](C)CO)C(=O)c2cc(NS(=O)(=O)c3ccc(Cl)cc3)ccc2O[C@@H]1CN(C)Cc1ccc(Cl)c(Cl)c1 . Its cytotoxicity call was active

Entry under test: COCC(=O)N1C[C@]2(C1)CN([C@H](CO)c1c2c2ccc(cc2n1C)OC)C(=O)CN1CCOCC1 . Its cytotoxicity call was inactive
